Data provenance is patent US20240366813A1.

assay: In vivo metabolism test of 177Lu-labeled complex in SD rats (plasma radioactive counts); conditions: mean of rats, 2 h after tail vein injection
Known plasma radioactive counts, MEAN of a selection of compounds

- compound: "O=C([O-])CN1CCN(CC(=O)[O-])CCN(CC(=O)N2CC3(CCC(C(=O)NC(Cc4ccc5ccccc5c4)C(=O)NCCCCC(NC(=O)NC(CCC(=O)O)C(=O)O)C(=O)O)CC3)C2)CCN(CC(=O)[O-])CC1.[177Lu+3] (stereo not drawn) [^177Lu-E2]"
  plasma radioactive counts, MEAN / cpm: 1526
- compound: "O=C([O-])CN1CCN(CC(=O)[O-])CCN(CC(=O)Nc2nc3cc(C(=O)NC(Cc4ccc5ccccc5c4)C(=O)NCCCCC(NC(=O)NC(CCC(=O)O)C(=O)O)C(=O)O)ccc3s2)CCN(CC(=O)[O-])CC1.[177Lu+3] (stereo not drawn) [^177Lu-E1]"
  plasma radioactive counts, MEAN / cpm: 952
- compound: "O=C([O-])CN1CCN(CC(=O)[O-])CCN(CC(=O)N2CCc3cc(C(=O)NC(Cc4ccc5ccccc5c4)C(=O)NCCCCC(NC(=O)NC(CCC(=O)O)C(=O)O)C(=O)O)ccc3C2)CCN(CC(=O)[O-])CC1.[177Lu+3] (stereo not drawn) [^177Lu-E3]"
  plasma radioactive counts, MEAN / cpm: 519
- compound: "O=C([O-])CN1CCN(CC(=O)[O-])CCN(CC(=O)N2CCC3(CCC(C(=O)NC(Cc4ccc5ccccc5c4)C(=O)NCCCCC(NC(=O)NC(CCC(=O)O)C(=O)O)C(=O)O)CC3)CC2)CCN(CC(=O)[O-])CC1.[177Lu+3] (stereo not drawn) [^177Lu-E9]"
  plasma radioactive counts, MEAN / cpm: 630
- compound: "O=C([O-])CN1CCN(CC(=O)[O-])CCN(CC(=O)NCC2CCC(C(=O)N[C@@H](Cc3ccc4ccccc4c3)C(=O)NCCCC[C@H](NC(=O)N[C@@H](CCC(=O)O)C(=O)O)C(=O)O)CC2)CCN(CC(=O)[O-])CC1.[177Lu+3] (stereo partly drawn) [^177Lu-PSMA-617, reference compound]"
  plasma radioactive counts, MEAN / cpm: 1190
- compound: "O=C([O-])CN1CCN(CC(=O)[O-])CCN(CC(=O)NC23CC(C(=O)NC(Cc4ccc5ccccc5c4)C(=O)NCCCCC(NC(=O)NC(CCC(=O)O)C(=O)O)C(=O)O)(C2)C3)CCN(CC(=O)[O-])CC1.[177Lu+3] (stereo not drawn) [^177Lu-E14]"
  plasma radioactive counts, MEAN / cpm: 1655
